log10 of EC50 by entry:
Test system: Tenomodulin (Tnmd) gene expression in rat tail tendon fascicles
Test description: Ex vivo assay, Tnmd mRNA in tendon fascicles (qPCR)
Assay type: cell-based, Sprague Dawley rat
Reported conditions: 96 h, Table 3, four days, read-out: Ex vivo Tnmd (EC50 μM)
Measured parameter: log10 of EC50 (log10 of the value in µM)

Compound	Measurement target	Measured parameter	Result
Cc1c(-c2ccc(S(=O)(=O)N[C@H]3C[C@@H](O)C3)cc2Cl)ccc2[nH]nc(N)c12 [Example 34]	Tenomodulin (Tnmd) gene expression in rat tail tendon fascicles	log10 of EC50	-1.11
Cc1cc(S(=O)(=O)N(C)C2CC(F)(F)C2)ccc1-c1ccc2[nH]nc(N)c2c1C [Example 63]	Tenomodulin (Tnmd) gene expression in rat tail tendon fascicles	log10 of EC50	0.73
Cc1cc(S(=O)(=O)N2CC(F)(F)C[C@H]2CO)ccc1-c1ccc2[nH]nc(N)c2c1Cl [Example 54]	Tenomodulin (Tnmd) gene expression in rat tail tendon fascicles	log10 of EC50	-0.15
Nc1n[nH]c2ccc(-c3ccc(S(=O)(=O)N[C@@H]4CCC[C@@H]4O)cc3Cl)c(Cl)c12 [Example 69]	Tenomodulin (Tnmd) gene expression in rat tail tendon fascicles	log10 of EC50	0.58
Cc1cc(S(=O)(=O)NC2CC(O)(C3CC3)C2)ccc1-c1ccc2[nH]nc(N)c2c1C (stereo not shown) [Example 50]	Tenomodulin (Tnmd) gene expression in rat tail tendon fascicles	log10 of EC50	0.87
CCC1(O)CC(NS(=O)(=O)c2ccc(-c3ccc4[nH]nc(N)c4c3C)c(C)c2)C1 (stereo not shown) [Example 49]	Tenomodulin (Tnmd) gene expression in rat tail tendon fascicles	log10 of EC50	0.44
Cc1cc(S(=O)(=O)N2CC(F)(F)C2)ccc1-c1ccc2[nH]nc(N)c2c1C [Example 78]	Tenomodulin (Tnmd) gene expression in rat tail tendon fascicles	log10 of EC50	0.28
Cc1c(-c2ccc(S(=O)(=O)N[C@H]3C[C@](O)(C(F)(F)F)C3)cc2Cl)ccc2[nH]nc(N)c12 [Example 55]	Tenomodulin (Tnmd) gene expression in rat tail tendon fascicles	log10 of EC50	0.74
Cc1cc(S(=O)(=O)N2CC[C@@H](O)C2)ccc1-c1ccc2[nH]nc(N)c2c1Cl [Example 7]	Tenomodulin (Tnmd) gene expression in rat tail tendon fascicles	log10 of EC50	-0.33
Cc1cc(S(=O)(=O)N[C@@H]2COCC[C@H]2O)ccc1-c1ccc2[nH]nc(N)c2c1C [Example 45]	Tenomodulin (Tnmd) gene expression in rat tail tendon fascicles	log10 of EC50	0.45
Cc1cc(S(=O)(=O)N2CC[C@@H](O)C2)ccc1-c1ccc2[nH]nc(N)c2c1C [Example 4]	Tenomodulin (Tnmd) gene expression in rat tail tendon fascicles	log10 of EC50	-0.29
Cc1cc(S(=O)(=O)N[C@@H]2CCCC[C@H]2O)ccc1-c1ccc2[nH]nc(N)c2c1C [Example 16]	Tenomodulin (Tnmd) gene expression in rat tail tendon fascicles	log10 of EC50	-0.35
Cc1cc(S(=O)(=O)N[C@H]2C[C@](O)(C(F)(F)F)C2)ccc1-c1ccc2[nH]nc(N)c2c1Cl [Example 37]	Tenomodulin (Tnmd) gene expression in rat tail tendon fascicles	log10 of EC50	0.23
Cc1cc(S(=O)(=O)NC2CC(O)(Cc3ccccc3)C2)ccc1-c1ccc2[nH]nc(N)c2c1C (stereo not shown) [Example 51]	Tenomodulin (Tnmd) gene expression in rat tail tendon fascicles	log10 of EC50	0.83
Cc1cc(S(=O)(=O)N2CC(F)(F)C[C@H]2CO)ccc1-c1ccc2[nH]nc(N)c2c1C [Example 32]	Tenomodulin (Tnmd) gene expression in rat tail tendon fascicles	log10 of EC50	0.79
Cc1cc(S(=O)(=O)N[C@@H]2CCC[C@@H]2O)ccc1-c1ccc2[nH]nc(N)c2c1C [Example 18]	Tenomodulin (Tnmd) gene expression in rat tail tendon fascicles	log10 of EC50	0.03

----------
Measurement target: recombinant human Tyk2 (aa888-1187) (Homo sapiens (Human))
Sequence (P29597 888-1187): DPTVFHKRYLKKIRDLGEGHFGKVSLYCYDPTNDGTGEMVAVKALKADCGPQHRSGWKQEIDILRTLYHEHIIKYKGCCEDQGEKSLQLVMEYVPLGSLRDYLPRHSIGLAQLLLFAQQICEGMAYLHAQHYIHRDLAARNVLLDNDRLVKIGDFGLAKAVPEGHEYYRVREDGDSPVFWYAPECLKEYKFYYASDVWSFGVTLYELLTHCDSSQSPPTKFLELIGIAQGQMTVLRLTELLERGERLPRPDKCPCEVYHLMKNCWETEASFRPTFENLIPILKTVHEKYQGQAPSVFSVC
Test description: Kinase selectivity panel, substrate peptide phosphorylation (Caliper)
Assay type: biochemical
Reported conditions: 45 uM ATP
Measured parameter: IC50 (µM)

Compound	Result
CS(=O)(=O)NCc1nc2cnc3[nH]ccc3c2n1[C@@H]1C[C@H]2CC[C@@H]1C2 [reference compound]	0.14
CCS(=O)(=O)N1CC(CC#N)(n2cc(-c3ncnc4[nH]ccc34)cn2)C1	0.03
Cc1cc(Nc2nc(N[C@@H](C)c3ncc(F)cn3)ncc2Cl)n[nH]1 [reference compound]	0.002
N#Cc1ccc(COc2ccc(-c3cccc4nc(NC(=O)C5CC5)nn34)cc2)cn1 [reference compound]	0.11

----------
Measurement target: recombinant human Jak3 (aa811-1124) (Homo sapiens (Human))
Sequence (P52333 811-1124): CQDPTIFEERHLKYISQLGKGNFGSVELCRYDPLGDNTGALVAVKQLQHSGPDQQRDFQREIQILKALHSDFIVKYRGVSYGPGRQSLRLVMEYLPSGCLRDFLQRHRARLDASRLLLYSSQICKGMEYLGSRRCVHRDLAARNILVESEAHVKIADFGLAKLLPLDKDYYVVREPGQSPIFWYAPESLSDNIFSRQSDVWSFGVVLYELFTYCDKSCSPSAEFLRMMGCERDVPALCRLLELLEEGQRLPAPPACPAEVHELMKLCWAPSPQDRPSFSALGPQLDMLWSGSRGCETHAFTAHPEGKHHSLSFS
Format: biochemical
Reported conditions: 45 uM ATP
Measured parameter: IC50 (µM)

Molecule	Measurement unit	Result
Cc1cc(Nc2nc(N[C@@H](C)c3ncc(F)cn3)ncc2Cl)n[nH]1 [reference compound]	µM	0.06

----------
Measurement target: recombinant human Jak2 (aa808-1132) (Homo sapiens (Human), UniProt O60674)
Test description: Kinase selectivity panel, substrate peptide phosphorylation (Caliper)
Assay type: biochemical

Molecule	IC50
N#Cc1ccc(COc2ccc(-c3cccc4nc(NC(=O)C5CC5)nn34)cc2)cn1 [reference compound]	0.03 µM
CC[C@@](C)(Nc1ccnc(-c2c[nH]c3ncccc23)n1)C(=O)NCC(F)(F)F [reference compound]	0.13 µM
CS(=O)(=O)NCc1nc2cnc3[nH]ccc3c2n1[C@@H]1C[C@H]2CC[C@@H]1C2 [reference compound]	0.19 µM

----------
Tested on: Scleraxis (Scx) gene transcriptional activation in TT-D6 Scx-luciferase (ScxL) cell line
Test description: SCX-LUC in vitro assay (Scx-luciferase reporter)
Format: cell-based
Reported conditions: Mus musculus, 96 h; Table 3; four days; read-out: Scx-Luc (EC50 μM)

Molecule	EC50
Cc1cc(S(=O)(=O)N[C@H]2CCC[C@]2(C)O)ccc1-c1ccc2[nH]nc(N)c2c1C	1.33 µM
Cc1cc(S(=O)(=O)N2CCC(O)(C(F)(F)F)C2)ccc1-c1ccc2[nH]nc(N)c2c1C (stereo not drawn)	0.63 µM
Cc1cc(S(=O)(=O)N[C@]2(C)C[C@H](O)C2)ccc1-c1ccc2[nH]nc(N)c2c1C	0.806 µM
Cc1cc(S(=O)(=O)N2CC(F)(F)C2)ccc1-c1ccc2[nH]nc(N)c2c1C	2.1 µM
Cc1c(-c2ccc(S(=O)(=O)N3CC(C)(C)C3)cc2Cl)ccc2[nH]nc(N)c12	0.773 µM
Nc1n[nH]c2ccc(-c3ccc(S(=O)(=O)N4CC(F)(F)C[C@H]4CO)cc3F)c(F)c12	1.5 µM
Cc1cc(S(=O)(=O)N2CC(F)(F)C[C@H]2C(N)=O)ccc1-c1ccc2[nH]nc(N)c2c1C	0.372 µM
Cc1cc(S(=O)(=O)N2CC(F)=C[C@H]2CO)ccc1-c1ccc2[nH]nc(N)c2c1C	0.17 µM
Nc1n[nH]c2ccc(-c3ccc(S(=O)(=O)NC4CC(O)(C(F)(F)F)C4)cc3Cl)c(F)c12 (stereo not drawn)	0.177 µM

----------
EC50 by entry:
Test system: Scleraxis (Scx) gene transcriptional activation in TT-D6 Scx-luciferase (ScxL) cell line
Test description: SCX-LUC in vitro assay (Scx-luciferase reporter)
Type: cell-based
Reported conditions: Mus musculus; Table 1; read-out: Scx-Luc (EC50 uM)
Measured parameter: EC50 (µM)

Compound	Result
C[C@@H](O)c1nc2cnc3[nH]ccc3c2n1[C@H]1CCCOC1 [reference compound]	0.82
COc1ccc(-c2nc3c(NCC4CCNCC4)c(Cl)cnc3[nH]2)c(F)c1 [reference compound]	0.51
N#CCNC(=O)c1ccc(-c2ccnc(Nc3ccc(N4CCOCC4)cc3)n2)cc1 [reference compound]	0.12
N#Cc1ccc(COc2ccc(-c3cccc4nc(NC(=O)C5CC5)nn34)cc2)cn1 [reference compound]	0.22
Cc1cnc(Nc2ccc(OCCN3CCCC3)cc2)nc1Nc1cccc(S(=O)(=O)NC(C)(C)C)c1 [reference compound]	0.62
CS(=O)(=O)NCc1nc2cnc3[nH]ccc3c2n1[C@@H]1C[C@H]2CC[C@@H]1C2 [reference compound]	0.18
O=C(Nc1nc2cccc(-c3ccc(OCc4ccc[n+]([O-])c4)cc3)n2n1)C1CC1 [reference compound]	0.02

----------
System: Scleraxis (Scx) gene transcriptional activation in TT-D6 Scx-luciferase (ScxL) cell line
Test description: SCX-LUC in vitro assay (Scx-luciferase reporter)
Format: cell-based
Reported conditions: Mus musculus, 96 h; Table 3; four days; read-out: Scx-Luc (EC50 μM)
EC50 by entry:
Measured parameter: EC50

Compound	Result
Cc1cc(S(=O)(=O)N2CC(C#N)C2)ccc1-c1ccc2[nH]nc(N)c2c1C	0.879 µM
Cc1c(-c2ccc(S(=O)(=O)N[C@H]3C[C@@H](O)C3)cc2Cl)ccc2[nH]nc(N)c12	0.614 µM
Cc1cc(S(=O)(=O)N2C[C@@H](F)C[C@H]2CO)ccc1-c1ccc2[nH]nc(N)c2c1C	1.01 µM
Cc1cc(S(=O)(=O)N(C)C2CC(O)(C(F)(F)F)C2)ccc1-c1ccc2[nH]nc(N)c2c1C (centres unmarked)	0.467 µM
Cc1c(-c2ccc(S(=O)(=O)N3CC(F)(F)C[C@H]3CO)cc2Cl)ccc2[nH]nc(N)c12	0.764 µM
Cc1c(-c2ccc(S(=O)(=O)N3CCC(O)C3)cc2F)ccc2[nH]nc(N)c12 (centres unmarked)	2.83 µM
Cc1cc(S(=O)(=O)N2CCC(C#N)CC2)ccc1-c1ccc2[nH]nc(N)c2c1C	1.85 µM
Cc1cc(S(=O)(=O)N[C@@H]2CCC[C@H]2O)ccc1-c1ccc2[nH]nc(N)c2c1C	3.05 µM

Reference for the values: patent US10112907B2
